ASSAYED_SYSTEM: T1, recombinant human domain 1-3His6 of the cation-independent mannose-6-phosphate receptor (human, UniProt P11717 41-467)
T1 construct: Biotinylated (NHS-PEG4-biotin) for BLI; Glycosylated; also called hDom1-3His6; hCI-M6PRD1-D3
ASSAY_NAME: BLI at pH 7.4, 2nd of 2 repeats
Readings of koff for the listed binders
VALUE_TYPE: koff (s⁻¹)

BINDER	VALUE_TYPE	UNITS_OF_MEASURE	RESULT_NUMBER
anti-CI-M6PR VHH4 (VHH, His6-tagged; made in Pichia pastoris) VHH: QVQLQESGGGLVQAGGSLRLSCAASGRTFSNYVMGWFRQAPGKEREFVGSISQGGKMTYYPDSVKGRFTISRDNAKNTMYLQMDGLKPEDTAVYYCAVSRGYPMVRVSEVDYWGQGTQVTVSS	koff	s⁻¹	0.00133
anti-CI-M6PR VHH9 (VHH, His6-tagged; made in Pichia pastoris) VHH: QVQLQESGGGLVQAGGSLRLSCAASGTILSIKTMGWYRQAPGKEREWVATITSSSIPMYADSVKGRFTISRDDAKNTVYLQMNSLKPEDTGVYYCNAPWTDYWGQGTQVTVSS	koff	s⁻¹	0.000444
anti-CI-M6PR VHH1 (VHH, His6-tagged; made in Pichia pastoris, later also in E. coli WK6) VHH: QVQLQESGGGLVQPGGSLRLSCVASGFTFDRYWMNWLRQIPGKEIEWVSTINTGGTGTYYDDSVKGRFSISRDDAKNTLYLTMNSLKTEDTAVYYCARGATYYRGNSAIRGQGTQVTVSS	koff	s⁻¹	0.0099
anti-CI-M6PR VHH10 (VHH, His6-tagged; made in Pichia pastoris) VHH: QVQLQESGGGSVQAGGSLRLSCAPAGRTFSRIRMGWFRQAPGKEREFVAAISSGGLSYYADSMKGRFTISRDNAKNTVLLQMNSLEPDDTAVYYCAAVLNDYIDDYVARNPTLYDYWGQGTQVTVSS	koff	s⁻¹	0.00177
anti-CI-M6PR VHH11 (VHH, His6-tagged; made in Pichia pastoris) VHH: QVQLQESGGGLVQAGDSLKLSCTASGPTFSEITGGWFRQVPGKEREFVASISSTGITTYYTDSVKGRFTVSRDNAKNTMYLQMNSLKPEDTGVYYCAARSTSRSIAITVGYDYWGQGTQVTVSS	koff	s⁻¹	0.00391
anti-CI-M6PR VHH5 (VHH, His6-tagged; made in Pichia pastoris, later also in E. coli WK6) VHH: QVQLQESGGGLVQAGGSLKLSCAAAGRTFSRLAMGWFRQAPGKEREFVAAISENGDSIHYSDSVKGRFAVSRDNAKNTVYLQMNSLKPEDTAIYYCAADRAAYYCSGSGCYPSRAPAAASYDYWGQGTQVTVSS	koff	s⁻¹	0.00018
anti-CI-M6PR VHH7 (VHH, His6-tagged (Pichia pastoris)) VHH: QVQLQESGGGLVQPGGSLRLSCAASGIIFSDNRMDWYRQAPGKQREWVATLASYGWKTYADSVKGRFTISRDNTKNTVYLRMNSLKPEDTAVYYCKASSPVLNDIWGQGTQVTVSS	koff	s⁻¹	0.0118
anti-CI-M6PR VHH8 (VHH, His6-tagged (Pichia pastoris)) VHH: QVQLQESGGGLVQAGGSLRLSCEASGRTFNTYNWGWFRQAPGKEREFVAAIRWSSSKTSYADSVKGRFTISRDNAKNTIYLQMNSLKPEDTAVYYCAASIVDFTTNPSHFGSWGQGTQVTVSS	koff	s⁻¹	0.00065
anti-CI-M6PR VHH6 (VHH, His6-tagged; made in E. coli) VHH: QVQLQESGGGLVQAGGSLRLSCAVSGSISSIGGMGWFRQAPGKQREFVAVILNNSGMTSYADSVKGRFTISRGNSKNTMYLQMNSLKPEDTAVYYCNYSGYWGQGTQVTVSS	koff	s⁻¹	0.00352
anti-CI-M6PR VHH3 (VHH, His6-tagged; made in Pichia pastoris) VHH: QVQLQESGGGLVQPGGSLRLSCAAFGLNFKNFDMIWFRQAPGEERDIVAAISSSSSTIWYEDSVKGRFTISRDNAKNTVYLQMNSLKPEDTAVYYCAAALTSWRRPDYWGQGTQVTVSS	koff	s⁻¹	0.000345

Each recorded value in this set is attributed to patent US20250263490A1.
